# Test system: SKBR3 cells
# test_description: SKBR3 Cell Viability Assay (CellTiter Glo)
# Type: cell-based
# particulars: 72 hours, CellTiter Glo luminescence, read-out: MCL-1 CV SKBR3 EC50
measurement_kind: EC50 (nM)

Example entries begin here.
compound	measurement_kind	unit_text	measurement
CCC(=O)N[S@]1(=O)=NC(=O)c2ccc3c(c2)N(C[C@@H]2CC[C@H]2[C@@H](OC)/C=C/CC[C@H]1CC)C[C@@]1(CCCc2cc(Cl)ccc21)CO3	EC50	nM	5830
COc1nn(C)cc1C(=O)NS1(=O)=NC(=O)c2ccc3c(c2)N(C[C@@H]2CC[C@H]2[C@@H](OC)/C=C/[C@H](OC(=O)CCc2ccccc2)[C@H](C)C1)C[C@@]1(CCCc2cc(Cl)ccc21)CO3 (single isomer, unassigned)	EC50	nM	1180
COc1nn(C)cc1C(=O)N[S@@]1(=O)=NC(=O)c2ccc3c(c2)N(C[C@@H]2CC[C@H]2[C@@H](OC)/C=C/[C@H](OC(=O)N(C)C)[C@H](C)C1C(=O)N(C)C)C[C@@]1(CCCc2cc(Cl)ccc21)CO3 (some centres unmarked)	EC50	nM	6180

I. CO[C@H]1/C=C/C[C@H](C)C[S@@](=O)(NC(=O)N[C@H]2C[C@@H]2OC)=NC(=O)c2ccc3c(c2)N(C[C@@H]2CC[C@H]21)C[C@@]1(CCCc2cc(Cl)ccc21)CO3 (single isomer, unassigned)
II. CCC(=O)NS1(=O)=NC(=O)c2ccc3c(c2)N(C[C@@H]2CC[C@H]2[C@@H](OC)/C=C/CCC1)C[C@@]1(CCCc2cc(Cl)ccc21)CO3 (single isomer, unassigned)
# returns the entry with the larger EC50; inputs I and II Select an item and report its label.
II
(II: 899 nM, I: 29.6 nM)
